# Tested on: 276233-004-R-J1-PDC complex spheroid viability
# Test Protocol: Anticancer human tumor 276233-004-R-J1-PDC patient-derived colon adenocarcinoma cell line growth inhibition [GQUAD]
# Assay Conditions: second compound 3.16 µM; first compound 3.16 µM; hits give low values

Compound	Unit	viability, T/C
COc1ncnc(C2CC2)c1-c1ncc2cnn(Cc3ccc(-c4nc(C(F)(F)F)cn4C(C)C)cc3)c2n1 + Cc1[nH]c2ccc(F)cc2c1-c1nc2c3cccnc3c3ncccc3c2[nH]1	%	12.7
COc1ncnc(C2CC2)c1-c1ncc2cnn(Cc3ccc(-c4nc(C(F)(F)F)cn4C(C)C)cc3)c2n1 + CN(C)c1ccc(Nc2c3ccc(NC(=O)CCN4CCCC4)cc3nc3cc(NC(=O)CCN4CCCC4)ccc23)cc1	%	56.7
CC1COCCN1c1cc(-c2ccnn2C)c2ccnc(-c3ccn[nH]3)c2n1 (stereo not given) + Cc1cnc(CNC(=O)c2c(=O)c3ccc(N4CCCN(C)CC4)nc3n3c2sc2ccccc23)cn1	%	49.7
C#Cc1c(F)ccc2cc(O)cc(-c3ncc4c(N5CC6CCC(C5)N6)nc(OCC56CCCN5CC(F)C6)nc4c3F)c12 (stereo not given) + CN(C)c1ccc(Nc2c3ccc(NC(=O)CCN4CCCC4)cc3nc3cc(NC(=O)CCN4CCCC4)ccc23)cc1	%	39.1
Cc1cccc(N(C)C(=O)C2C(O)CCN2c2nc(C)cc(C(F)(F)F)c2C#N)c1 (stereo not given) + Cc1[nH]c2ccc(F)cc2c1-c1nc2c3cccnc3c3ncccc3c2[nH]1	%	59.8

###

# Tested on: 276233-004-R-J1-PDC complex spheroid viability
# Test Protocol: Anticancer human tumor 276233-004-R-J1-PDC cell line growth inhibition [GQUAD];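 further: spheroids exposed to drugs for seven days; 100% = DMSO vehicle control viability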
# Assay Conditions: second compound 10 µM; first compound 0.0999 µM; hits give low values

Compound	viability, T/C / %
Cn1ncnc1[C@H]1c2n[nH]c(=O)c3cc(F)cc(c23)N[C@@H]1c1ccc(F)cc1 + CN(C)c1ccc(Nc2c3ccc(NC(=O)CCN4CCCC4)cc3nc3cc(NC(=O)CCN4CCCC4)ccc23)cc1	57.1
CC[C@@]1(O)C(=O)OCc2c1cc1n(c2=O)Cc2cc3c(CN(C)C)c(O)ccc3nc2-1 + Cc1cnc(CNC(=O)c2c(=O)c3ccc(N4CCCN(C)CC4)nc3n3c2sc2ccccc23)cn1	70
Cn1ncnc1[C@H]1c2n[nH]c(=O)c3cc(F)cc(c23)N[C@@H]1c1ccc(F)cc1 + Cc1cnc(CNC(=O)c2c(=O)c3ccc(N4CCCN(C)CC4)nc3n3c2sc2ccccc23)cn1	66.2
CCc1c2c(nc3ccc(O)cc13)-c1cc3c(c(=O)n1C2)COC(=O)[C@]3(O)CC + CN(C)c1ccc(Nc2c3ccc(NC(=O)CCN4CCCC4)cc3nc3cc(NC(=O)CCN4CCCC4)ccc23)cc1	78.5

###

# Test system: 276233-004-R-J1-PDC complex spheroid viability
# Test Protocol: Anticancer human tumor 276233-004-R-J1-PDC cell line growth inhibition [GQUAD];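 further: spheroids exposed to drugs for seven days; 100% = DMSO vehicle control viability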
# Assay Conditions: second compound 0.1 µM; first compound 0.0316 µM; hits give low values
Measurement Label: viability, T/C (%)

Compound	Study System	Measurement Label	Numeric Value
CC(=O)O[C@H]1C(=O)[C@@]2(C)[C@H]([C@H](OC(=O)c3ccccc3)[C@]3(O)C[C@H](OC(=O)[C@H](O)[C@@H](NC(=O)c4ccccc4)c4ccccc4)C(C)=C1C3(C)C)[C@]1(OC(C)=O)CO[C@@H]1C[C@@H]2O + CN(C)c1ccc(Nc2c3ccc(NC(=O)CCN4CCCC4)cc3nc3cc(NC(=O)CCN4CCCC4)ccc23)cc1	276233-004-R-J1-PDC complex spheroid viability	viability, T/C	70.4
COc1cccc2c1C(=O)c1c(O)c3c(c(O)c1C2=O)CC(O)(C(=O)CO)CC3OC1CC(N)C(O)C(C)O1 (centres undefined) + Cc1cnc(CNC(=O)c2c(=O)c3ccc(N4CCCN(C)CC4)nc3n3c2sc2ccccc23)cn1	276233-004-R-J1-PDC complex spheroid viability	viability, T/C	79
Cn1ncnc1[C@H]1c2n[nH]c(=O)c3cc(F)cc(c23)N[C@@H]1c1ccc(F)cc1 + Cc1cnc(CNC(=O)c2c(=O)c3ccc(N4CCCN(C)CC4)nc3n3c2sc2ccccc23)cn1	276233-004-R-J1-PDC complex spheroid viability	viability, T/C	78.3
Cc1[nH]c2ccccc2c1CCNCc1ccc(/C=C/C(=O)NO)cc1 + CN(C)c1ccc(Nc2c3ccc(NC(=O)CCN4CCCC4)cc3nc3cc(NC(=O)CCN4CCCC4)ccc23)cc1	276233-004-R-J1-PDC complex spheroid viability	viability, T/C	71.3
